Numbers sourced from the supplement of paper PMC12764529.

Readings of folding stability dG unfold for the listed sequences
EXPERIMENT: folding stability dG unfold (combined trypsin and chymotrypsin); higher = more stable
READOUT_NAME: folding stability dG unfold

>>> print(df.to_string())
                            sequence_string                 readout_name   readout_value
0  SPPVRARIRVERLPDGSVRVELEVEFPDGVRVRIETLEAPPETGVVRVRARFFPPDGSSVEFEFTFPLLRSA [r9_1179_TrMRF]  folding stability dG unfold   4.52 kcal/mol
1  SAGGSAGGSMDPGQPMEFIQIYPDPDGNLEIHVSEIRIDPDGGAKVTEVEPKRIDDAEDLAKFSAGGSAGGS [r12_386_TrROS]  folding stability dG unfold   < -1 kcal/mol
2  SAGGSAGGSAGKKKILLKFKSAEEALEAIKKGKTIKLKNGKTVKVKKVTLDKNGYLLIELSAGGSAGGSAGG [r11_48_TrROS_Hall]  folding stability dG unfold   2.44 kcal/mol
3  SAGGGSMKTIELTVTNPATGETVTVTLELDPSVSEEEVEARIKETEEAVEKELLAPEPPLAPTPARASAGGS [r16_191_JUSTAS]  folding stability dG unfold  0.765 kcal/mol

---

Readings of folding stability dG unfold for the listed sequences
EXPERIMENT: folding stability dG unfold from chymotrypsin proteolysis; higher = more stable
READOUT_NAME: folding stability dG unfold (kcal/mol)

                             sequence_string  unit_text  readout_value
 0  SAGGSAGGMTPEEERRKKESPVPPVNKVTVKIPVPSSVSEEVAKEIAEKLEKESGAKKVEVILPSAGGSAGG [r6_517_JUSTAS]   kcal/mol           1.34
 1  SAGGKLLEELNVEKVEVVEVKEFSLPPLPLLVLLPTVTVTFKDGSKVKFKVLFLYDPSNPKPIVVAGSAGGS [r8_422_TrMRF]   kcal/mol           3.64
 2  SAGMKPGEVLTVEDIPPGALLRNPKGESLGPVVEVEVRALEDSVEAVVTFPDGSKATVTFPADDIVLDPSAG [r5_850_TrMRF]   kcal/mol          0.991
 3  SMMIKVKITITNEKGEEVEIEIVASPEEIEEALRKLLPPGAKVEIEKIEFYPLEELKPGDVIKITVRVKPSA [r9_803_TrROS_Hall]   kcal/mol           4.47
 4  SAGGPKVVKGKKVEKVELEVGKLPDGVELVKVKVRSKEVDKEFTFTFEPGQDLGEFGKATGFDIGVESAGGS [r16_676_TrMRF]   kcal/mol          0.552
 5  PDNEPPQWYRVWIPIDPEDGKIEVKPGGSTMTIDLPDGRPIEFYVPQGMSPSDIKNWAKGIAKELAEELKNS [r1_25_TrROS]   kcal/mol           1.58
 6  SAGMELKVEIVAPKEVLLEKVKELEATIKKAFPKVKVEVEAKIEPLEGDEWKATVVIKIEPLPEDEPAESAG [r5_936_TrMRF]   kcal/mol           3.59
 7  SGLTLTLPVAPDEELKLTLKLPNTDETVEVEAETVAETGDVFAVAVATPPNGDKKVVPAVIKVEPGEPDESA [r9_770_TrMRF]   kcal/mol          0.332
 8  SAGGSAGGSAGGGPDATPVTTTYVDLNLTPVSTETDPETGAVTVTYKLPGETITVTLPASAGGSAGGSAGGS [r10_962_JUSTAS]   kcal/mol           1.11
 9  SAGGMKYLVTITITDPDTGQERVIEVEFPDMTPEEIKEAAEELAEEIASEQGLNLKVEVEVTPIPLLSAGGS [r8_185_JUSTAS]   kcal/mol           3.34
10  SAGGSAGGPIRIDPEDGRIRNNGQPYKFDKIEDIEPNENNKSIRLTIRMKNGKEHKQPIPADDISAGGSAGG [r6_682_TrROS]   kcal/mol         -0.759
11  SAGGSAGGSAGGSTILILDPETKKLYLIRIEKREDGKEELKLKVYEFDLKTGEMKEYELSAGGSAGGSAGGS [r10_1041_TrROS_Hall]   kcal/mol           4.68
12  SAGGSAGGSAGKKKKKPKPIVLVIKVKTKEEAEKLAEKLKELGFKVEIVEKKDGYLVIKLSAGGSAGGSAGG [r17_323_TrROS_Hall]   kcal/mol            3.8
13  SAGGSAGGSAGKAKIEVVEVDKNGKVRLKIKLENGEVKEIENADEITINGKKIKVEKIEPSAGGSAGGSAGG [r11_1017_TrROS_Hall]   kcal/mol           1.52
14  SAGATATPPAVRVATARLPLPFGTGTEVTVTTYSDGSATVTARFPDGVVATAFVSPDGSAVVTVAPAGGSAG [r5_168_TrMRF]   kcal/mol           2.95
15  SAGGSAKKKIKIKVKNKDGSVYELEFDEENGIVKITYKDGKKEELSVEELKKLPLPKNITEVEIVPSAGGSA [r15_1043_TrROS_Hall]   kcal/mol           2.59
16  SAGGSNVEVERHPDGHMTFTFPDEDGKDVKITIHMHPDGMYMIRVPGNNQPIYFPPGQSIEDLLKLSAGGSA [r2_338_TrROS]   kcal/mol           2.88
17  SAGGSAGGSAGGSKTLTPEEIKKLLDEAKKKGYKTVKITVKNKNGKTYTFTIKIPKEDLSAGGSAGGSAGGS [r4_342_TrROS_Hall]   kcal/mol           3.13
18  SAGGGPLRTVEVELEFETEEEAEKAIKEYLEKLGLPPEKVEVSFVSREERLVEDKIVYRYKFVFTLPSAGGS [r16_240_JUSTAS]   kcal/mol           5.13
19  SSPVVVSESTDPNSSTKTITVTLPPNARVTLTLPGEPVETRPQPDATATLTTGPDALDITIEPLPPGVPLSA [r9_221_JUSTAS]   kcal/mol          0.474
20  SAGGGMTVTIEVEGSIKKSIKGISYKDDKEKKESNKNKYLKKTITVTLTAEDDPNAAAAAIAALGLGSAGGS [r16_467_JUSTAS]   kcal/mol          0.313
21  SAGGSAGGSMTIEEIKKLAEELGIEKVEIEKVKDGYYKIKIYNKKTGKKIEIIIKVNKDGKIVSAGGSAGGS [r12_170_TrROS_Hall]   kcal/mol            3.9
22  SAGGEELARRLAEELRELGLEVEVVDVDLEEGKITIRVRPAPPPPPVTERRTRRRPDGREVTEERVLSAGGS [r8_318_TrROS_Hall]   kcal/mol         0.0369
23  SAMKIKVPPGAEIITEDGEKIEPGQEVEVTDIEFDEETGEVHITVKIKNPETGEEIEEKVTIRFPKEEESAG [r14_258_TrROS_Hall]   kcal/mol          0.977
24  SAGGKVFTPEHLEELLKNVPADDPNATLTVTVEVPVVVLPTTDGDDNPLPAAAAPATVTLPITVLPASAGGS [r16_708_TrMRF]   kcal/mol            1.2
25  SAGGSAGGKILVIEIEVDSPEKAVEKAKEIVKELGLPESVKIKEIVFFKEEGDKYRALVLVDLDSAGGSAGG [r6_282_TrMRF]   kcal/mol           4.09
26  SAGGSAGGPKEYYRVTVYVRNKDGEWEKVAEIEVPGMTEEELKELLAKLGLPPGAEVEIKIEKVSAGGSAGG [r6_88_TrROS_Hall]   kcal/mol           4.92
